TEST: basal HepG2 mitochondrial membrane potential changes, profiling panel, cell-based, JC-1 fluorescence, 24 h, 100 nL compound (AID 1167); note: test concentration not given here
MEASUREMENT CONTEXT: higher = more signal
PARAMETER: z-score

Take a look at these entries with their results.
COMPOUND: COc1ccc(O[C@H]2C=C[C@@H](C#Cc3ccccc3)O[C@@H]2CO)cc1
PARAMETER: z-score
VALUE OBSERVED: -1.19

COMPOUND: CCCNC(=O)OC[C@H]1O[C@H](CCON=C[C@@H](NS(=O)(=O)c2ccc(C)cc2)[C@H](C)C=CCC(=O)OC)C=C[C@@H]1Oc1ccc(OC)cc1
PARAMETER: z-score
VALUE OBSERVED: 0.421

COMPOUND: CC(C)[C@@H](OCc1ccccc1)[C@H](C)C=NOC[C@@H](O)[C@H]1O[C@@H]2OC(C)(C)O[C@@H]2[C@H]1O
PARAMETER: z-score
VALUE OBSERVED: -0.719

COMPOUND: CCN1C(=O)[C@H]2[C@H]3[C@H](O)[C@H](O)CC(=NOC(C)CN4CCCc5nc(C)c(C)cc54)[C@@H]3CC[C@H]2C1=O (stereo partly specified)
PARAMETER: z-score
VALUE OBSERVED: 0.128

COMPOUND: CO[C@@H]1[C@H](O)CO[C@H]1C=Cc1ccccc1
PARAMETER: z-score
VALUE OBSERVED: 0.161

Turning now to a further compound:
## Input Please give the documented z-score of CO[C@H]1COC(=O)[C@H](C)COC(=O)[C@@H](OCc2ccccc2)C=C[C@@H]1C
## Output 0.919

====

TEST: basal MM1S mitochondrial membrane potential changes, profiling panel, cell-based, JC-1 fluorescence, 24 h, 100 nL compound (AID 1170); note: test concentration not given here
MEASUREMENT CONTEXT: higher = more signal
# if value of z-score reaches 0.1, tag condition met; if it stays below, tag condition not met

Recorded results for 3 molecules are shown here.
MOLECULE: CC[C@@H](c1ccccc1)n1c(=O)n2n(c1=O)[C@H]1[C@H](O)[C@@H]3O[C@@H]3C(=NOCc3ccccc3)[C@H]1CC2
QUALITATIVE LABEL: condition not met

MOLECULE: CC(C)[C@H](NC(=O)OC(C)(C)C)[C@@H](O)CC(=O)C(C)(C)C
QUALITATIVE LABEL: condition not met

MOLECULE: CC(C)CON=C1C[C@@H](O)[C@@H](O)[C@@H]2[C@@H]3C(=O)N(Cc4ccccc4)C(=O)[C@@H]3CC[C@H]12
QUALITATIVE LABEL: condition not met

## Input Does the reported z-score for CCCCOC(OCCCC)C(O)CSc1ccc2ccccc2c1 (stereo unspecified) fall at or above the 0.1 mark?
## Output condition not met

## Input Please check the record CO[C@@H]1C=CCC(=O)N[C@@H](C)C(=O)OC[C@@H](OC)[C@H](C)C=CCC(=O)OC[C@H]1C and state if its z-score is at or above 0.1.
## Output condition met

## Input Check this molecule for z-score at or above 0.1: CC(C)(C)N1C(=O)[C@H]2[C@H]3[C@H](O)[C@H](O)CC(=NOC[C@@H](O)COCc4ccco4)[C@H]3CC[C@H]2C1=O
## Output condition not met

## Input Check this molecule for z-score at or above 0.1: COc1ccc(COC(=O)NN=C2C[C@@H](O)[C@@H](O)[C@@H]3[C@@H]4C(=O)N(C5CCCCC5)C(=O)[C@@H]4CC[C@@H]23)cc1
## Output condition not met
